Tested on: RXF 393 renal
Test: NCI tumour cell line growth inhibition, 48 h; in the data active = GI50 below about 0.43 µM; inactive = the rest
Labels: TRUE = active, FALSE = inactive

compound=S=C(NCCNC(=S)[S][Sn]([c]1ccccc1)([c]1ccccc1)[c]1ccccc1)[S][Sn]([c]1ccccc1)([c]1ccccc1)[c]1ccccc1 category_label=TRUE
compound="CC1=CCCC2C1(C)CCC(C)C2(C)Cc1cc(O)ccc1O (stereo not given)" category_label=FALSE
compound=C[C@]12CC[C@@H]3c4cc(O)c(O)cc4CC[C@H]3[C@@H]1CC[C@@H]2O category_label=FALSE
compound=COc1ccc2c(c1)CC[C@@H]1[C@@H]2CC[C@]2(C)c3c(cc(C(=O)O)c4sccc34)C[C@@H]12 category_label=FALSE
compound=COc1ccc2c(c1)oc(=O)c1cc(OC)ccc12 category_label=FALSE
compound="O=c1[nH]c(=O)c2cc3cc(C4CC(O)C(CO)O4)ccc3cc2[nH]1 (stereo not given)" category_label=FALSE
compound=COc1cc2c(cc1Cc1cccc(Cl)c1F)c(=O)c(C(=O)O)cn2[C@@H](CO)C(C)C category_label=FALSE
compound=CN(C)CCCCC(C(=O)CBr)(c1ccccc1)c1ccccc1 category_label=FALSE
compound=Clc1ccc(Nc2ccnc(N3CCN(c4ccnc5cc(Cl)ccc45)CC3)n2)cc1 category_label=FALSE
compound=CCNC(=O)Nc1ccc(Oc2ccnc3ccc4c(ccn4C)c23)cc1 category_label=FALSE
